assay.protocol: P. aeruginosa biofilm formation inhibitors, primary screen, strain PAO1, LB-PBS medium, absorbance 600 nm (AID 1176); also: test concentration not given here
details: P. aeruginosa PAO1 growth/biofilm, A600, 12 h; higher = more signal
// False strictly below 0.2 in z-score; True otherwise

Look over these answered cases.
# compound, assigned.label
data = [
    ("COC(=O)[C@@]1(Cc2ccc(OC)cc2)[C@H]2c3cc(C(=O)N4CCCC4)n(Cc4ccc(S(C)(=O)=O)cc4)c3C[C@H]2CN1C(=O)c1ccccc1", "False"),
    ("CC(C)(C)OC(=O)CC[C@]1(C(=O)N2CCCCC2)COC(c2ccc(OCCCO)cc2)=N1", "False"),
    ("CN(C)C(=O)[C@@]1(Cc2ccccc2)COC(c2ccc(OCCCO)cc2)=N1", "False"),
    ("CCOC(=O)C1=C[C@@H](C(C)(C)C)N(S(=O)(=O)c2ccc(C)cc2)[C@H]1c1ccccc1", "False"),
    ("CN1C(=O)[C@@H]2[C@@H](CC(COc3ccccc3)=C([C@H](O)CCc3ccccc3)[C@@H]2CO)C1=O", "False"),
    ("COc1cc(C(O)C2C=CC3C(=O)N(Cc4ccccc4)C(=O)C3N2n2cnnc2)cc(OC)c1OC (stereo not given)", "True"),
    ("CCOC(=O)C1=CC[C@@H](c2ccccc2)N(S(=O)(=O)c2ccc(C)cc2)[C@H]1C=Cc1ccccc1", "True"),
    ("CCCCCN1CC=CC23O[C@@H]4/C=C\\CCC(C)OC(=O)C4[C@H]2C(=O)N(CCCCCCO)[C@@H]3C1=O (stereo not given in full)", "False"),
]

Does z-score meet or surpass 0.2 for "[N-]=[N+]=NCc1ccccc1[C@H]1OC(c2ccc(OCCCO)cc2)=N[C@@]1(CCS(=O)(=O)c1ccccc1)C(=O)NCc1ccccc1" ? False

Does z-score meet or surpass 0.2 for "CO[C@H]1O[C@H](CO)[C@@H](OC(=O)CCc2ccccc2)[C@H](OC(=O)c2cc3ccccc3[nH]2)[C@H]1OC(=O)c1cc2ccccc2[nH]1" ? True

Does z-score meet or surpass 0.2 for "C=CCNC(=O)[C@H]1[C@@H]2C(=O)O[C@@H](c3ccccc3)[C@@H](c3ccccc3)N2[C@@H](c2ccc(O)cc2)[C@]12C(=O)N(C(=O)OCCOC)c1ccc(C#CCC(C(=O)OC)C(=O)OC)cc12" ? True

Does z-score meet or surpass 0.2 for CC1(C)C(=O)C(c2ccccc2)=C2CN3C(=O)N(CCc4ccccc4)C(=O)C3(Cc3ccc(F)cc3)C=C21 (stereo not given) ? True

Does z-score meet or surpass 0.2 for "O=C1O[C@H](c2ccccc2)[C@H](c2ccccc2)N2[C@H]1[C@@H](C(=O)Nc1nc3ccccc3s1)[C@]1(C(=O)Nc3ccc(C#CC4=CCCCC4)cc31)[C@H]2c1ccc(O)cc1" ? True

Does z-score meet or surpass 0.2 for C=C(C)[C@@H]1CC=C(C(O)C2C=CC3C(=O)N(c4ccccc4)C(=O)C3N2Nc2ccc(C#N)cc2)CC1 (stereo not given in full) ? True

Does z-score meet or surpass 0.2 for O=C1C2C=CC(C(O)c3cccc(O)c3)N(Nc3ccccc3)C2C(=O)N1c1ccccc1 (stereo not given) ? True
